solubility by entry:
- procedure_details: Aqueous solubility of compound at pH 7.4 by HPLC analysis
- Assay type: physicochemical

// below: answered molecules
CCNc1nc(C)cc(N2CC(NC(=O)c3cc(Cl)cc(Cl)c3)C2)n1	81 µM
CCNc1cc(N2CCN(S(=O)(=O)c3ccc(F)cc3)CC2)ncn1	94 µM

Request: Item O=C(c1ccc(Cl)cc1)N1CCN(c2ncnc3[nH]cnc23)CC1 has what recorded solubility?
Response: 114 µM

Request: Item CCNc1nc(C)cc(N2CCN(C(=O)c3cccc([N+](=O)[O-])c3)CC2)n1 has what recorded solubility?
Response: > 120 µM

====

- Test system: Chikungunya virus
- procedure_details: Antiviral activity against Chikungunya virus infected in African green monkey Vero cells assessed as reduction in viral induced cell death incubated for 5 days by MTS reagent based absorbance method
- Type: functional, organism-based
- conditions: 120 h
pEC50 by entry:
To interpret pEC50, take it as minus log10 of a concentration measured in moles per litre.

// below: answered compounds
CCNc1nc(C)cc(N2CC3CN(C(=O)c4ccc(Cl)cc4)CC3C2)n1 (stereo not given)	5.49
O=C(c1ccc(Cl)c(Cl)c1)N1CCN(c2nc(C(F)(F)F)nc3[nH]cnc23)CC1	5.02
CCNc1nc(C)cc(N2CCN(C(=O)c3ccc(OC)cc3)CC2)n1	5.85
CCNc1cc(C)nc(N2CCN(C(=O)c3ccc(Br)cc3)CC2)n1	5.02
CCNc1nc(C)cc(N2CCN(C(=O)c3cccc([N+](=O)[O-])c3)CC2)n1	6.15

Request: Item Cc1cc(N2CCN(C(=O)c3ccc(Br)cc3)CC2)nc(N(C)C)n1 has what recorded pEC50?
Response: 5.18
